- Method summary: Stability test (residual rate by HPLC, odor, coloring)
- Format: physicochemical
- Cond: 1% aqueous solution, pH 6, 50° C.; initial; total score of 10 panelists
Attribute measured: Coloring

1) CC(C)(O)COC1=C(OCC(O)c2ccccc2)C(C(O)CO)OC1=O (stereo not shown) [Synthesis Example 38] = ⊚

----------
- Method summary: Stability test (residual rate by HPLC, odor, coloring)
- Type: physicochemical
- Cond: 1% aqueous solution, pH 6, 50° C.; initial; total score of 10 panelists
Attribute measured: Coloring

1) CC(O)COC1=C(OCC(C)(C)O)[C@@H]([C@@H](O)CO)OC1=O (stereo partly shown) [Synthesis Example 39] = ⊚

----------
- Method summary: Stability test (residual rate by HPLC, odor, coloring)
- Format: physicochemical
- Cond: 1% aqueous solution, pH 6, 50° C.; initial; total score of 10 panelists
Attribute measured: Coloring

1. CCCCCCCCC(O)COC1=C(OCC(C)(C)O)C(=O)O[C@@H]1[C@@H](O)CO (stereo partly drawn) [Synthesis Example 36] = ⊚

----------
- Test system: Normal human dermal fibroblasts
- Method summary: Collagen production promoting effect (ELISA of supernatant)
- Assay type: cell-based
- Cond: amount of collagen produced, % with control group taken as 100%; sample at 10 mmol/L or less, 48 hours, N=3
Attribute measured: Collagen production promoting effect

Look over these answered cases.
1. CC(C)(O)COC1=C(OCC(O)c2ccccc2)C(=O)OC1C(O)CO (stereo not shown) [Synthesis Example 43] = ++ (120%: ++)
2. CC(C)(O)COC1=C(O)[C@@H]([C@@H](O)CO)OC1=O [Synthesis Example 1, 2-O-(2-hydroxyisobutyl) ascorbic acid] = ++ (120%: ++)
3. CC(O)COC1=C(OCC(C)(C)O)C(=O)O[C@@H]1[C@@H](O)CO (stereo partly shown) [Synthesis Example 34] = + (100-120%: +)
4. CC(O)COC1=C(OCC(C)(C)O)[C@@H]([C@@H](O)CO)OC1=O (stereo partly shown) [Synthesis Example 39] = + (100-120%: +)
5. CC(C)(O)COC1=C(O)C(=O)O[C@@H]1[C@@H](O)CO [Synthesis Example 2, 3-O-(2-hydroxyisobutyl) ascorbic acid] = + (100-120%: +)

For every record below, what is its Collagen production promoting effect?
1. CCCCCCOC1=C(OCC(C)(C)O)[C@@H]([C@@H](O)CO)OC1=O [Synthesis Example 20]
2. O=C1O[C@H]([C@@H](O)CO)C(O)=C1OCC(O)CO (stereo partly shown) [2-O-glyceryl ascorbic acid, reference compound]

Response line:
1: ++ (120%: ++); 2: + (100-120%: +)

----------
- Test system: Normal human dermal fibroblasts
- Method summary: Collagen production promoting effect (ELISA of supernatant)
- Type: cell-based
- Cond: amount of collagen produced, % with control group taken as 100%; sample at 10 mmol/L or less, 48 hours, N=3
Attribute measured: Collagen production promoting effect

1. CCCCCCCCCCCCOC1=C(OCC(C)(C)O)C(=O)O[C@@H]1[C@@H](O)CO [Synthesis Example 8] = ++ (120%: ++)
2. CCCCOC1=C(OCC(C)(C)O)[C@@H]([C@@H](O)CO)OC1=O [Synthesis Example 19] = ++ (120%: ++)
3. CCCCCCCCCCCCCCC(O)COC1=C(OCC(C)(C)O)[C@@H]([C@@H](O)CO)OC1=O (stereo partly shown) [Synthesis Example 42] = + (100-120%: +)
4. CCCCCCCCC(O)COC1=C(OCC(C)(C)O)[C@@H]([C@@H](O)CO)OC1=O (stereo partly shown) [Synthesis Example 41] = + (100-120%: +)
5. CCCCCCCCCCCCOCC(O)COC1=C(OCC(C)(C)O)C(C(O)CO)OC1=O (stereo not shown) [Synthesis Example 31] = ++ (120%: ++)

For every record below, what is its Collagen production promoting effect?
1. C=CCOC1=C(OCC(C)(C)O)[C@@H]([C@@H](O)CO)OC1=O [Synthesis Example 26]
2. CCCCCCCCCCOC1=C(OCC(C)(C)O)C(=O)O[C@@H]1[C@@H](O)CO [Synthesis Example 7]

Response line:
++ (120%: ++)
++ (120%: ++)

For every record below, what is its Collagen production promoting effect?
1. CCOC1=C(OCC(C)(C)O)[C@@H]([C@@H](O)CO)OC1=O [Synthesis Example 18]
2. CCCCCCCCC(O)COC1=C(OCC(C)(C)O)C(=O)O[C@@H]1[C@@H](O)CO (stereo partly shown) [Synthesis Example 36]
3. CC(C)(O)COC1=C(OCC(O)CO)[C@@H]([C@@H](O)CO)OC1=O (stereo partly shown) [Synthesis Example 13]
4. CCCCOCC(O)COC1=C(OCC(C)(C)O)C(C(O)CO)OC1=O (stereo not shown) [Synthesis Example 29]
5. CCCCCCCCCCCCCCC(O)COC1=C(OCC(C)(C)O)C(=O)O[C@@H]1[C@@H](O)CO (stereo partly shown) [Synthesis Example 37]
6. CC(C)(O)COC1=C(OCc2ccccc2)C(=O)O[C@@H]1[C@@H](O)CO [Synthesis Example 27]
7. CCCCCCCCOC1=C(OCC(C)(C)O)C(=O)O[C@@H]1[C@@H](O)CO [Synthesis Example 6]

Response line:
++ (120%: ++)
+ (100-120%: +)
++ (120%: ++)
++ (120%: ++)
+ (100-120%: +)
++ (120%: ++)
++ (120%: ++)

For every record below, what is its Collagen production promoting effect?
1. CCCCOC1=C(OCC(C)(C)O)C(=O)O[C@@H]1[C@@H](O)CO [Synthesis Example 4]
2. CCCCOCC(O)COC1=C(OCC(C)(C)O)C(=O)OC1C(O)CO (stereo not shown) [Synthesis Example 14]

Response line:
++ (120%: ++)
++ (120%: ++)

----------
- Method summary: Stability test (residual rate by HPLC, odor, coloring)
- Assay type: physicochemical
- Cond: 1% aqueous solution, pH 6, stored at 50° C.; four weeks later
- Protocol: With a dilute potassium hydroxide aqueous solution, 1% aqueous solution of each test sample was adjusted to pH 6, placed in a 50 mL screw tube, sealed, […], and then subjected to HPLC measurement (using a liquid chromatograph manufactured by Shimadzu Corporation) to determine the residual rate from the peak area. The residual rate, odor, and coloring degree were evaluated according to the following methods and criteria. […]
Attribute measured: Residual rate

1. CCCCCCCCCCCCCCC(O)COC1=C(OCC(C)(C)O)C(=O)O[C@@H]1[C@@H](O)CO (stereo partly shown) [Synthesis Example 37] = ⊚ (⊚: 90% or more)
2. CC(C)(O)COC1=C(OCC(C)(C)O)[C@@H]([C@@H](O)CO)OC1=O [Synthesis Example 17] = ⊚ (⊚: 90% or more)
3. CC(C)(O)COC1=C(OCC(O)c2ccccc2)C(C(O)CO)OC1=O (stereo not shown) [Synthesis Example 38] = ⊚ (⊚: 90% or more)

The values you see were collected from patent US20260001853A1.
